The measured values listed here are drawn from patent EP4711355A1.

assay: Long-term accelerated stability test (Test Example 3), sealed in aluminum foil bags; type: physicochemical; conditions: 40°C-75%RH, 1 month
Structures can show the parent of a compound that is named as a salt.
Readout kind: Purity (%)
Reply with a number, then the unit it belongs to.

Provide Purity (%) value for the following compound: O=C(O)[C@@H](Cc1cccc(CN(CCOc2cccc(C[C@H](C(=O)O)[C@H]3CCNC3)c2)Cc2cccc(C[C@H](C(=O)O)[C@H]3CCNC3)c2)c1)[C@H]1CCNC1 [hydrochloride (1:1) amorphous form] 97.6%

Provide Purity (%) value for the following compound: O=C(O)[C@@H](Cc1cccc(CN(CCOc2cccc(C[C@H](C(=O)O)[C@H]3CCNC3)c2)Cc2cccc(C[C@H](C(=O)O)[C@H]3CCNC3)c2)c1)[C@H]1CCNC1 [hydrochloride (1:1) crystal form e] 99.9%

Provide Purity (%) value for the following compound: O=C(O)[C@@H](Cc1cccc(CN(CCOc2cccc(C[C@H](C(=O)O)[C@H]3CCNC3)c2)Cc2cccc(C[C@H](C(=O)O)[C@H]3CCNC3)c2)c1)[C@H]1CCNC1 [hydrochloride (1:1) crystal form a] 97.7%

Provide Purity (%) value for the following compound: Cl.Cl.Cl.Cl.O=C(O)[C@@H](Cc1cccc(CN(CCOc2cccc(C[C@H](C(=O)O)[C@H]3CCNC3)c2)Cc2cccc(C[C@H](C(=O)O)[C@H]3CCNC3)c2)c1)[C@H]1CCNC1 [hydrochloride (1:4) amorphous form] 99.8%

* * *

assay: In vivo pharmacokinetic study in beagle dogs; conditions: male, dog, plasma, po, gavage, 10 mg/kg, read-out: Area under curve AUC
Readout kind: AUC (ng·h/mL)
Just the number please, in ng·h/mL, no unit attached.

Provide AUC value for the following molecule: Cl.Cl.Cl.Cl.O=C(O)[C@@H](Cc1cccc(CN(CCOc2cccc(C[C@H](C(=O)O)[C@H]3CCNC3)c2)Cc2cccc(C[C@H](C(=O)O)[C@H]3CCNC3)c2)c1)[C@H]1CCNC1 [Compound A hydrochloride] 28600

* * *

What Purity (%) was measured for each of the following?
assay: Long-term accelerated stability test (Test Example 3), sealed in aluminum foil bags; type: physicochemical; conditions: 25°C-60%RH, 14 days
Structures can show the parent of a compound that is named as a salt.
Reply with a number, then the unit it belongs to.

Provide Purity (%) value for the following compound: O=C(O)[C@@H](Cc1cccc(CN(CCOc2cccc(C[C@H](C(=O)O)[C@H]3CCNC3)c2)Cc2cccc(C[C@H](C(=O)O)[C@H]3CCNC3)c2)c1)[C@H]1CCNC1 [hydrochloride (1:1) amorphous form] 98.8%

Provide Purity (%) value for the following compound: O=C(O)[C@@H](Cc1cccc(CN(CCOc2cccc(C[C@H](C(=O)O)[C@H]3CCNC3)c2)Cc2cccc(C[C@H](C(=O)O)[C@H]3CCNC3)c2)c1)[C@H]1CCNC1 [hydrochloride (1:1) crystal form e] 99.9%

Provide Purity (%) value for the following compound: Cl.Cl.Cl.Cl.O=C(O)[C@@H](Cc1cccc(CN(CCOc2cccc(C[C@H](C(=O)O)[C@H]3CCNC3)c2)Cc2cccc(C[C@H](C(=O)O)[C@H]3CCNC3)c2)c1)[C@H]1CCNC1 [hydrochloride (1:4) amorphous form] 99.8%

Provide Purity (%) value for the following compound: O=C(O)[C@@H](Cc1cccc(CN(CCOc2cccc(C[C@H](C(=O)O)[C@H]3CCNC3)c2)Cc2cccc(C[C@H](C(=O)O)[C@H]3CCNC3)c2)c1)[C@H]1CCNC1 [hydrochloride (1:1) crystal form a] 99.9%
